molecular target: human 5-HT2B receptor (Homo sapiens (Human), UniProt P41595); experiment: 5-HT2B functional assay, IP1 (IPOne); assay type: cell-based
Sequence (P41595 whole entry, looked up): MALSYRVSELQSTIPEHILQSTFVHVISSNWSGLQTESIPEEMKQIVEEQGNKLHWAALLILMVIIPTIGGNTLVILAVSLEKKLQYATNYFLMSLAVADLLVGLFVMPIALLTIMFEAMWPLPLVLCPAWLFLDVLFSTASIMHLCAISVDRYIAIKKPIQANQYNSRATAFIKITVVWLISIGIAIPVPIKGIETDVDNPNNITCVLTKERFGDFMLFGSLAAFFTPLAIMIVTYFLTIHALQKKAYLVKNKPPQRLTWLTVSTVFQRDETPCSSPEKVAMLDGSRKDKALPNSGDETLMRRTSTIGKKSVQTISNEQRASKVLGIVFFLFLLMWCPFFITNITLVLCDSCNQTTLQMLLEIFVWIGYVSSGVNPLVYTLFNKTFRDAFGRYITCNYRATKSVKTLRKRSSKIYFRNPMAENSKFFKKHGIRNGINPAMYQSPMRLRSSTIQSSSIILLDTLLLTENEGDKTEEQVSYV
quantity.kind: pEC50
pEC50 here is simply -log10 of the concentration when that concentration is written in mol/L.

// field: pEC50; key: COc1cc(CC(C)N)c(OC)cc1I (racemic) [DOI, (±)-2,5-dimethoxy-4-iodoamphetamine, reference compound] ; value = 7.80

// field: pEC50; key: COc1cc(SC(F)F)c(OC)cc1CCN ; value = 7.17

// field: pEC50; key: COc1cc(SC(F)(F)F)c(OC)cc1CCN ; value = 7.06

// field: pEC50; key: COc1cc(SCCC(F)F)c(OC)cc1CCN ; value = 6.80

// field: pEC50; key: COc1cc(C(C)(C)C)c(OC)cc1CCN ; value = 7.60

// field: pEC50; key: COc1cc(SCC(F)(F)C(F)F)c(OC)cc1CCN ; value = 6.62

###

biological target: 5-HT2C receptor (Homo sapiens (Human)); assay: 5-HT2C agonist radioligand binding ([125I]DOI)
Sequence (P28335 whole entry, looked up): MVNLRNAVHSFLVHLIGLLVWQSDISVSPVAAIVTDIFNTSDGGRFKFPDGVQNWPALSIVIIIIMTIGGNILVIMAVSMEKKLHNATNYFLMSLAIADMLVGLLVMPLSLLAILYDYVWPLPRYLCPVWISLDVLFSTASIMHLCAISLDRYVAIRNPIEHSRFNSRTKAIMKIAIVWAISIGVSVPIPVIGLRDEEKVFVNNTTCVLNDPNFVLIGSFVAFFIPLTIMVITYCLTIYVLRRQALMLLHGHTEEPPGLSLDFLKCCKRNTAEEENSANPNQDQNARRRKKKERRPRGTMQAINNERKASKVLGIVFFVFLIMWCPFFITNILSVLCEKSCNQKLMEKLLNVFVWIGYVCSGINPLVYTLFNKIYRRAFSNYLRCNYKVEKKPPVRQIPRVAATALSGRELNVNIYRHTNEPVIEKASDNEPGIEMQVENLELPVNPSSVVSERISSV
quantity.kind: pKi
pKi here is simply -log10 of the concentration when that concentration is written in mol/L.

Bench note, 5-HT2C receptor (Homo sapiens (Human)): entry COc1cc(CC(C)N)c(OC)cc1I (racemic) [DOI, (±)-2,5-dimethoxy-4-iodoamphetamine, reference compound] , its pKi = 9.32

###

assay: PK in Sprague-Dawley rats (plasma, brain, CSF); assay type: in vivo, rat; details: male, Sprague-Dawley, rat; brain; IV 1 mg/kg
quantity.kind: AUC(0-t) (ng·h/mL)
Number in ng·h/mL, nothing else.

// field: AUC(0-t); key: COc1cc(SC(F)(F)F)c(OC)cc1CCN [Compound I-1] ; value = 3220

###

assay: In vitro liver microsome stability (DLM); type: in vitro ADME; details: dog, dog liver microsomes, 0.5 mg/mL microsomes, NADPH, read-out: DLM, t1/2
quantity.kind: half-life at 1 μM

// field: half-life at 1 μM; key: [2H]C([2H])([2H])Oc1cc(SC(F)(F)F)c(OC([2H])([2H])[2H])cc1CCN [II-10] ; value = > 2 h

// field: half-life at 1 μM; key: COc1cc(SC(F)(F)F)c(OC)cc1CCN [Compound I-1] ; value = > 2 h

###

assay: PK profile in Wistar rats (plasma, brain, urine); assay type: in vivo, rat; conditions: male, Wistar, rat, brain, po, 5 mg/kg; p.o. 5 mg/kg
quantity.kind: Tmax (h)
Number in h, nothing else.

// field: Tmax; key: COc1cc(SC(F)(F)F)c(OC)cc1CCN ; value = 2

###

assay: PK in Sprague-Dawley rats (plasma, brain, CSF); format: in vivo, rat; conditions: male, Sprague-Dawley, rat; brain; IV 1 mg/kg
quantity.kind: Cmax (ng/mL)
Number in ng/mL, nothing else.

// field: Cmax; key: COc1cc(SC(F)(F)F)c(OC)cc1CCN ; value = 1490

###

assay: PK profile in Wistar rats (plasma, brain, urine); format: in vivo, rat; conditions: male, Wistar, rat, po; brain; p.o. 5 mg/kg
quantity.kind: AUC(0-inf) (µg·h/mL)
Number in µg·h/mL, nothing else.

// field: AUC(0-inf); key: COc1cc(SC(F)(F)F)c(OC)cc1CCN ; value = 2.88
